Ref: paper doi:10.1101/2023.10.25.564053v1

target_desc: UniProt:P16304
Sequence (P16304 whole entry): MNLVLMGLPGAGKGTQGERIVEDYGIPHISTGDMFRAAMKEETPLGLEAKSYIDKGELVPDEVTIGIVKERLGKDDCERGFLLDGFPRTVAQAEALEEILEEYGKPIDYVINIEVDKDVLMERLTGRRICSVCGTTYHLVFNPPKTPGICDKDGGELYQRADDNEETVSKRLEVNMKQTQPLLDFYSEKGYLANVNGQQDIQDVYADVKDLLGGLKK
measurement_kind: pKd
Numbers only, as −log10 of the molar value.

Ask: What value of pKd has been reported for the following molecule? Nc1ncnc2c1ncn2[C@@H]1O[C@H](COP(=O)(O)OP(=O)(O)OP(=O)(O)OP(=O)(O)OP(=O)(O)OC[C@H]2O[C@@H](n3cnc4c(N)ncnc43)[C@H](O)[C@@H]2O)[C@@H](O)[C@H]1O [Ap5A]
Reply: 7.60

----------
target_desc: GsAK (Geobacillus stearothermophilus)
Sequence (P27142 whole entry): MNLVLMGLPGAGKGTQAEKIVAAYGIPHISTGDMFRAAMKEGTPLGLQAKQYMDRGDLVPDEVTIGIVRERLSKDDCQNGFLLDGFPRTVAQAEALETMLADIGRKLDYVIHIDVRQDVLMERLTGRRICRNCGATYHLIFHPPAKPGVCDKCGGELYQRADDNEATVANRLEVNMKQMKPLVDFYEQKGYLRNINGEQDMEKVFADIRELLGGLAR
measurement_kind: pKd
Answers are plain numbers, as −log10 of the molar value.

Ask: What value of pKd has been reported for the following molecule? Nc1ncnc2c1ncn2[C@@H]1O[C@H](COP(=O)(O)OP(=O)(O)OP(=O)(O)OP(=O)(O)OP(=O)(O)OC[C@H]2O[C@@H](n3cnc4c(N)ncnc43)[C@H](O)[C@@H]2O)[C@@H](O)[C@H]1O
Reply: 7.77
